- assay-remarks: in vitro
- protocol-conditions: human
CC50 at 7 days by entry:
Record the value in µM, omitting the unit from your answer.

**Q:** Need CC50 at 7 days, item "COc1ccc2cc1Oc1ccc(cc1)C[C@H]1c3cc(c(OC)cc3CCN1C)Oc1c(OC)c(OC)cc3c1[C@H](C2)N(C)CC3"
**A:** 4.77

---

CC50 at 7 days by entry:
- assay-remarks: Cytotoxicity assay in NHDF cells (MTS)
- protocol-conditions: human
Record the value in nM, omitting the unit from your answer.

# example entries with known answers
| compound | observed |
| --- | --- |
| COc1c(C)c2c(c(O)c1C/C=C(\C)CCC(=O)O)C(=O)OC2 | 23800 |
| O=C(Nc1ccc([N+](=O)[O-])cc1Cl)c1cc(Cl)ccc1O [Niclosamide] | 3050 |
| CC(C)C[C@H](NC(=O)[C@H](Cc1ccccc1)NC(=O)c1cnccn1)B(O)O | 720 |

**Q:** Need CC50 at 7 days, item "CO[C@@H]1[C@H](N(C)C(=O)c2ccccc2)C[C@H]2O[C@]1(C)n1c3ccccc3c3c4c(c5c6ccccc6n2c5c31)C(=O)NC4"
**A:** 240
